# Study system: Tyrosine-protein kinase receptor TYRO3 (Homo sapiens) (UniProt Q06418)
# Sequence (Q06418 whole entry): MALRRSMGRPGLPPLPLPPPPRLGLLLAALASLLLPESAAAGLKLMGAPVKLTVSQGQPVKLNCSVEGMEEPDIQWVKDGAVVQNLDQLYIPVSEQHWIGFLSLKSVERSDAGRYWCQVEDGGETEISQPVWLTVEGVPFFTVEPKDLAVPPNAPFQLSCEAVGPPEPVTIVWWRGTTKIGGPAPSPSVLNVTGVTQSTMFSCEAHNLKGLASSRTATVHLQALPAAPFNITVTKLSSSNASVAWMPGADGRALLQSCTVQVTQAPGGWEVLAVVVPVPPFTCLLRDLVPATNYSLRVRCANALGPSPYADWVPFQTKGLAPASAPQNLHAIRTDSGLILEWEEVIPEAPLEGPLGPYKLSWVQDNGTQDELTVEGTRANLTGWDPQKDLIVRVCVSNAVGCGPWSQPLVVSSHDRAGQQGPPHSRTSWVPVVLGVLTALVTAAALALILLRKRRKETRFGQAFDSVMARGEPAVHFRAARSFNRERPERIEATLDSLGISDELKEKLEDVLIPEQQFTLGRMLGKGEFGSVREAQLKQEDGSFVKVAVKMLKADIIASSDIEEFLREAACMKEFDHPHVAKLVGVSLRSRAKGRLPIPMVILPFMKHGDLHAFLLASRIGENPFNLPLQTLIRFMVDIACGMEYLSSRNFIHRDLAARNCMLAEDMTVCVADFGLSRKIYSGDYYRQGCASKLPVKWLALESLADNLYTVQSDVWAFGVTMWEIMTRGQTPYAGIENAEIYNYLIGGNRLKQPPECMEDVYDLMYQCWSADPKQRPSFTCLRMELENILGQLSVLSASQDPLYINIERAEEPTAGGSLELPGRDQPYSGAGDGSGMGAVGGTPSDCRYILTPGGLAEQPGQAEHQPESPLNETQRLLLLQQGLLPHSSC
# Stated conditions: at 1 µM
# Description: GSK_PKIS: TYRO3 mean inhibition at 1 uM [Nanosyn]
Listed here: items and their measured inhibition.
Return type: number; implicit unit %.

Lookup: Could you share what inhibition was measured for Nc1nonc1-c1nc2cnccc2n1C1CCCCC1 , tested on Tyrosine-protein kinase receptor TYRO3 (Homo sapiens) (UniProt Q06418)?
Found: -0.87

Lookup: Quick one: COc1cccc(-n2ncc3c(N/N=C/c4ccncc4)ncnc32)c1
Found: 41.6

Lookup: Quick one: COc1cc(C=NNc2ncnc3c2cnn3Cc2ccccc2)ccc1O
Found: 7.59

Lookup: Quick one: CCn1c(-c2nonc2N)nc2c(C#CCN)ncc(OCCCN)c21
Found: 3.68

Lookup: Quick one: COc1cccc(COc2cc(-n3cnc4ccccc43)sc2C(N)=O)c1
Found: -0.77

Lookup: Quick one: NS(=O)(=O)c1ccc(-c2ccc3c(NC(=O)C4CC4)n[nH]c3c2)cc1
Found: 13

Others:
Lookup: Could you share what inhibition was measured for CCn1c(-c2nonc2N)nc2c(C#CC(C)(C)O)ncc(OC[C@@H]3CCCN3)c21 , tested on Tyrosine-protein kinase receptor TYRO3 (Homo sapiens) (UniProt Q06418)?
Found: 1.75

Lookup: Quick one: CCn1c(-c2nonc2N)nc2c(C#CC(C)(C)O)nc(O[C@@H](CN)c3ccccc3)cc21
Found: 6.97

Lookup: Quick one: Fc1ccc(-c2ncn(C3CCNCC3)c2-c2ccnc(Oc3ccccc3)n2)cc1
Found: 0.47
